Experiment: APR_HepG2_CellCycleArrest_72hr: Apredica 72-hour HepG2 Assay for Cell Cycle Arrest (AID 2282914)
Details: high-content imaging, actives raise or lower the signal
Activity calls are given as the source filed them. The calls were made as follows: active = hit-call score of the fitted dose curve at least 0.9, where 1 is the maximum; inactive = score below 0.9.
Outcomes: active, inactive

[[record]]
compound = "COc1cc(Cl)c(OC)cc1Cl"
label = "inactive"

[[record]]
compound = "CCN(CC)C(=O)C(C)Oc1cccc2ccccc12 (centres undefined)"
label = "active"

[[record]]
compound = "CC1(C)C(C=C(Cl)Cl)C1C(=O)OC(C#N)c1cccc(Oc2ccccc2)c1 (centres undefined)"
label = "inactive"

[[record]]
compound = "CCC(C)n1c(=O)[nH]c(C)c(Br)c1=O (centres undefined)"
label = "inactive"

[[record]]
compound = "CCCCC(O)(Cn1cncn1)c1ccc(Cl)cc1Cl (centres undefined)"
label = "inactive"

[[record]]
compound = "COC(=O)NS(=O)(=O)c1ccc(N)cc1"
label = "inactive"

[[record]]
compound = "COc1cc(OC)nc(NC(=O)NS(=O)(=O)c2ncccc2OCC(F)(F)F)n1"
label = "inactive"

[[record]]
compound = "CSC(=O)c1c(C(F)F)nc(C(F)(F)F)c(C(=O)SC)c1CC(C)C"
label = "inactive"

[[record]]
compound = "CC1(C)CCC(=Cc2ccc(Cl)cc2)C1(O)Cn1cncn1 (centres undefined)"
label = "inactive"


###

Read-out: glucuronosyltransferase (UGT1A1), UGT1A1 (gene 54658)
Experiment: CLD_UGT1A1_24hr: CellzDirect (CLD) Gene Expression Assay for glucuronosyltransferase (UGT1A1) at 24 hours (AID 2283696)
Procedure: CLD_24hr is a cell-based, multiplexed-readout assay that uses hepatocyte, a human liver primary cell, with measurements taken at 24 hours after chemical dosing in a 96-well plate.CLD_UGT1A1_24hr is one of 16 assay component(s) measured or calculated from the CLD_24hr assay. […] Furthermore, this assay endpoint can be referred to as a primary readout. […]
Results filed as inconclusive are left out. The source made the active and inactive calls. The calls were made as follows: active = hit-call score of the fitted dose curve at least 0.9, where 1 is the maximum; inconclusive = response in the unintended direction; inactive = score below 0.9.
Outcomes: label 1 = active, label 0 = inactive

[[record]]
compound = "CN=C=S"
label = "label 0"

[[record]]
compound = "N#Cc1c[nH]cc1-c1cccc2c1OC(F)(F)O2"
label = "label 0"

[[record]]
compound = "COCC(C)N(C(=O)CCl)c1c(C)csc1C (configuration not stated)"
label = "label 0"

[[record]]
compound = "CCOP(=S)(OCC)Oc1nc(Cl)n(C(C)C)n1"
label = "label 1"

[[record]]
compound = "O=c1n(Cl)c(=O)n(Cl)c(=O)n1Cl"
label = "label 0"

[[record]]
compound = "N#Cc1c(Cl)cccc1Cl"
label = "label 0"

[[record]]
compound = "Cc1c(COC(=O)[C@@H]2[C@H](/C=C(\\Cl)C(F)(F)F)C2(C)C)cccc1-c1ccccc1"
label = "label 1"


###

Read-out: Vascular cell adhesion molecule 1 (VCAM1), VCAM1 (gene 7412)
Experiment: BSK_4H_VCAM1: BioMAP Diversity Plus: 4H Assay for Vascular cell adhesion molecule 1 (VCAM1) Biomarker Activity (AID 2283033)
Settings: primary human endothelial cells (HUVEC); actives raise or lower the signal
Active and inactive are the calls of the source. Rule for the calls: active = hit-call score of the fitted dose curve at least 0.9, where 1 is the maximum; inactive = score below 0.9.
Outcomes: 1.0 (active), 0.0 (inactive)

[[record]]
molecule = "Cc1cnc(C2=NC(C)(C(C)C)C(=O)N2)c(C(=O)O)c1 (stereo not given)"
label = 0.0

[[record]]
molecule = "CC(C)N1C(=O)N(c2ccccc2)CSC1=NC(C)(C)C"
label = 1.0

[[record]]
molecule = "CN/C(=N\\[N+](=O)[O-])NCc1cnc(Cl)s1"
label = 0.0

[[record]]
molecule = "N#Cc1c(Cl)cccc1Cl"
label = 0.0

[[record]]
molecule = "COc1cc(Cl)c(OC)cc1Cl"
label = 0.0

[[record]]
molecule = "COP(=S)(OC)SCn1nnc2ccccc2c1=O"
label = 0.0

[[record]]
molecule = "COCc1cnc(C2=NC(C)(C(C)C)C(=O)N2)c(C(=O)O)c1 (stereo not given)"
label = 0.0

[[record]]
molecule = "Cc1nc(N(C)C)nc(OC(=O)N(C)C)c1C"
label = 0.0

[[record]]
molecule = "CC(C)Nc1nc(Cl)nc(NC(C)C)n1"
label = 0.0

[[record]]
molecule = "CCN(CC)c1nc(C)cc(OP(=S)(OC)OC)n1"
label = 0.0


###

Read-out: Cytochrome P450 (CYP1A2), CYP1A2 (gene 1544)
Assay: LTEA_HepaRG_CYP1A2: Life Technologies and Expression Analysis (LTEA) Assay for Cytochrome P450 (CYP1A2) using HepaRG (AID 2283479)
Conditions: mRNA level, 48 h; actives raise or lower the signal
The source made the active and inactive calls. How the source made its calls: active means hit-call score of the fitted dose curve at least 0.9, where 1 is the maximum; inactive means score below 0.9.
Outcomes: active, inactive

[[record]]
molecule = "CC(C)(C)C(=O)C(Oc1ccc(Cl)cc1)n1cncn1 (configuration not stated)"
label = "inactive"

[[record]]
molecule = "CCCCC(C#N)(Cn1cncn1)c1ccc(Cl)cc1 (configuration not stated)"
label = "active"

[[record]]
molecule = "CCOc1cc(C(C)(C)C)ccc1C1COC(c2c(F)cccc2F)=N1 (configuration not stated)"
label = "inactive"

[[record]]
molecule = "C=C(C)CN(CC)c1c([N+](=O)[O-])cc(C(F)(F)F)cc1[N+](=O)[O-]"
label = "active"

[[record]]
molecule = "CN/C(=N\\[N+](=O)[O-])NCc1cnc(Cl)s1"
label = "inactive"

[[record]]
molecule = "OC(c1ccc(Cl)cc1)(c1ccc(Cl)cc1)C(Cl)(Cl)Cl"
label = "inactive"

[[record]]
molecule = "CCCCC(O)(Cn1cncn1)c1ccc(Cl)cc1Cl (configuration not stated)"
label = "active"

[[record]]
molecule = "O=C1C2CC=CCC2C(=O)N1SC(Cl)(Cl)Cl (configuration not stated)"
label = "inactive"

[[record]]
molecule = "COc1cc(Cl)c(OC)cc1Cl"
label = "active"

[[record]]
molecule = "N#Cc1c(Cl)cccc1Cl"
label = "inactive"

[[record]]
molecule = "N#Cc1c[nH]cc1-c1cccc2c1OC(F)(F)O2"
label = "active"

[[record]]
molecule = "CNC(=O)N(C)c1nnc(C(C)(C)C)s1"
label = "active"

[[record]]
molecule = "CC(C)=CC1C(C(=O)OCc2coc(Cc3ccccc3)c2)C1(C)C (configuration not stated)"
label = "inactive"

[[record]]
molecule = "Nc1c(Cl)c(F)nc(OCC(=O)O)c1Cl"
label = "inactive"

[[record]]
molecule = "CCCCOCN(C(=O)CCl)c1c(CC)cccc1CC"
label = "inactive"

[[record]]
molecule = "Nc1c(Cl)c(Cl)nc(C(=O)O)c1Cl"
label = "active"

[[record]]
molecule = "CCOP(=S)(OCC)Oc1nc(Cl)n(C(C)C)n1"
label = "active"

[[record]]
molecule = "CC(C)C1(C)N=C(c2ncccc2C(=O)O)NC1=O (configuration not stated)"
label = "inactive"

[[record]]
molecule = "O=C(Nc1ccccc1-c1ccc(Cl)cc1)c1cccnc1Cl"
label = "inactive"

[[record]]
molecule = "O=c1n(Cl)c(=O)n(Cl)c(=O)n1Cl"
label = "active"

[[record]]
molecule = "COC(=O)NC(=S)Nc1ccccc1NC(=S)NC(=O)OC"
label = "active"

[[record]]
molecule = "CCOc1nc(C(Cl)(Cl)Cl)ns1"
label = "active"

[[record]]
molecule = "CCSC(=O)N1CCCCCC1"
label = "inactive"

[[record]]
molecule = "Clc1cccc(C(Cl)(Cl)Cl)n1"
label = "inactive"

[[record]]
molecule = "Nc1cnn(-c2ccccc2)c(=O)c1Cl"
label = "active"

[[record]]
molecule = "CC(C)Nc1nc(Cl)nc(NC(C)C)n1"
label = "inactive"

[[record]]
molecule = "CC1(C)CCC(=Cc2ccc(Cl)cc2)C1(O)Cn1cncn1 (configuration not stated)"
label = "active"

[[record]]
molecule = "Cc1ccc(N=CN(C)C=Nc2ccc(C)cc2C)c(C)c1"
label = "active"

[[record]]
molecule = "Cn1c(-c2ccccc2)cc(-c2ccccc2)[n+]1C"
label = "active"

[[record]]
molecule = "CC(C)NC(=O)N1CC(=O)N(c2cc(Cl)cc(Cl)c2)C1=O"
label = "active"

[[record]]
molecule = "CC(C)Oc1cccc(NC(=O)c2ccccc2C(F)(F)F)c1"
label = "active"

[[record]]
molecule = "CCCN(CC)CC1COC2(CCC(C(C)(C)C)CC2)O1 (configuration not stated)"
label = "inactive"

[[record]]
molecule = "CNC(=O)Oc1cccc2ccccc12"
label = "inactive"

[[record]]
molecule = "Clc1nc(Cl)nc(Nc2ccccc2Cl)n1"
label = "active"

[[record]]
molecule = "CSC(=O)c1c(C(F)F)nc(C(F)(F)F)c(C(=O)SC)c1CC(C)C"
label = "inactive"

[[record]]
molecule = "COP(=S)(OC)Oc1ccc([N+](=O)[O-])c(C)c1"
label = "active"

[[record]]
molecule = "CC(C)N1C(=O)N(c2ccccc2)CSC1=NC(C)(C)C"
label = "active"

[[record]]
molecule = "N#CN=C1SCCN1Cc1ccc(Cl)nc1"
label = "inactive"

[[record]]
molecule = "CCN(CC)c1nc(C)cc(OP(=S)(OC)OC)n1"
label = "active"

[[record]]
molecule = "CN=C=S"
label = "inactive"

[[record]]
molecule = "CO/N=C(/C1=NOCCO1)c1ccccc1Oc1ncnc(Oc2ccccc2Cl)c1F"
label = "active"

[[record]]
molecule = "CC1(C)C(C=C(Cl)Cl)C1C(=O)OC(C#N)c1cccc(Oc2ccccc2)c1 (configuration not stated)"
label = "active"

